Can you tell me polymerase ribozyme fitness (log ratio) for the items I'm about to list?
B1: TPR 5TU (parent)
chain: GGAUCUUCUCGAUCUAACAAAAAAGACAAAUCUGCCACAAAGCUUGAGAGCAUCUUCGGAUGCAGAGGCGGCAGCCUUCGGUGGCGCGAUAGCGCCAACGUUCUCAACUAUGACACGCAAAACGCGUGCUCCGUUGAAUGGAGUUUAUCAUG

Variants of: B1
Experiment: polymerase ribozyme fitness, log enrichment relative to wild type (log ratio); higher = more active; in vitro selection for triplet polymerase activity
Fewer inactive variants are shown than the library holds.

(Q) Which measured polymerase ribozyme fitness (log ratio) value corresponds to A19U G70A U82A U127G ?
(A) ≤ -4.2

(Q) # input variant: G59A C95U C103G ; wanted: its polymerase ribozyme fitness (log ratio)
(A) -2.47

(Q) For A19U A23U U90G C105A , what is its reported polymerase ribozyme fitness (log ratio)?
(A) ≤ -4.2

(Q) Bench note: what polymerase ribozyme fitness (log ratio) did A21G C51U U53A C96U G126U show?
(A) -2.46

(Q) Form field: reported polymerase ribozyme fitness (log ratio) of G58C A119C
(A) -0.0646

(Q) Find the recorded polymerase ribozyme fitness (log ratio) belonging to C14A A16C U56G C57G A91C G136U and report it.
(A) ≤ -4.2

(Q) Entry A16U C54A U101G A119U C149U : reported polymerase ribozyme fitness (log ratio) = ?
(A) -4.08

(Q) Returns the measured polymerase ribozyme fitness (log ratio) for the input variant. Input: A52G G84A G94U G143A
(A) ≤ -4.2

(Q) Return reported polymerase ribozyme fitness (log ratio); argument: A20C A39C A40G G84U G88U C93A C96A
(A) ≤ -4.2

(Q) # input variant: G58A C95U ; wanted: its polymerase ribozyme fitness (log ratio)
(A) -0.535

(Q) So what does the record say about polymerase ribozyme fitness (log ratio) for U15G A73C G84U C96A C103G A110G A137C ?
(A) ≤ -4.2

(Q) Which polymerase ribozyme fitness (log ratio) is listed for A16G G80A ?
(A) -0.775

(Q) Recorded polymerase ribozyme fitness (log ratio) of A29U G59A G140A , please.
(A) ≤ -4.2

(Q) Which measured polymerase ribozyme fitness (log ratio) value corresponds to A12C A16U U145G ?
(A) -2.26

(Q) // lookup polymerase ribozyme fitness (log ratio) for A40U U55A G58C C85G A119U
(A) -2.59

(Q) What does the data say about its polymerase ribozyme fitness (log ratio)? Entry: A19U C35G C43A U56A G58U C85U A113G A122C U151A
(A) ≤ -4.2

(Q) // lookup polymerase ribozyme fitness (log ratio) for C43G A49C C51U G62A G88A A91G C125U A137G
(A) ≤ -4.2

(Q) Request the reported polymerase ribozyme fitness (log ratio) associated with A28C G84A C87G C96G A121U
(A) ≤ -4.2

(Q) Fill in: polymerase ribozyme fitness (log ratio) of A17U A24U G83C is ___
(A) 0.0208

(Q) May I ask what polymerase ribozyme fitness (log ratio) has been recorded for C95U C99U ?
(A) -1.09

(Q) Endpoint output: polymerase ribozyme fitness (log ratio) of C36U G58A A119G G140A . Value?
(A) -4.18

(Q) # lookup: polymerase ribozyme fitness (log ratio) of C38U G48A A60C C72G C96A C99U C114G U139G U148G
(A) ≤ -4.2

Reference for the values: the RNAGym collection of RNA variant scans (doi:10.1073/pnas.2313332121)
